# ASSAY TEXT: yeast display, Sf9 membrane polyspecificity reagent, FACS + sequencing; frameworks hold sequencing errors
QUANTITY KIND: polyreactivity (PSR sort gate)

QVQLVESGGGLVQAGGSLRLSCAASGRIFYTYAMGWYRQAPGKERELVAAITTSGGRTYYADSVKGRFTISRDNAKNTVYLQMNSLKPEDTAVYYCNKLSSDSYNYWGQGTQVTVSS :: high polyreactivity
QVQLVESGGGLVQAGGSLRLSCAASGLTFRYYAMGWYRQAPGKERELVAAITRRGSTYYADSVKGRFTISRDNAKNTVYLQMNSLKPEDTAVYYCATVTGFHSSPLRDLDYWGQGTQVTVSS :: high polyreactivity
